protocol.text: inhibitors of TNFa-induced NFkB p65 translocation, primary screen, imaging, HUVEC, MLSMR starter and 10KST1 sets (AID 438);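 further: compound added about 3h40 before a 20 min TNFalpha stimulation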
condition.details: HUVEC TNFa-induced p65 nuclear translocation; measured here: nuclei count (cytotoxicity indicator), at 2.08 µM
Exercise: state measured cell count for each of the molecules provided.

Exercise: Item under review: CCNS(=O)(=O)c1c(C)cc(N2CCCC2=O)cc1C . Reported cell count?
Solution: 498

Exercise: Item under review: CC1Cc2nc(SCC(N)=O)n(Cc3ccccc3)c(=O)c2S1 (stereo unspecified) . Reported cell count?
Solution: 633

Exercise: Item under review: CC(C)C(=O)Nc1ccc(-c2nc3cccnc3o2)cc1 . Reported cell count?
Solution: 413

Exercise: Item under review: Cc1cc(C(=O)Nc2c(C)n(C)n(-c3ccccc3)c2=O)c(C)o1 . Reported cell count?
Solution: 330

Exercise: Item under review: Cc1cc(C)c(NC2=NCC(=O)N2C2CCCCC2)c(C)c1 . Reported cell count?
Solution: 638

Exercise: Item under review: COc1ccc2c(C(F)(F)F)cc(=O)oc2c1C . Reported cell count?
Solution: 701

Exercise: Item under review: Cc1nc(NC(=O)C2CC3CCCC(C2)C3=O)sc1C (stereo unspecified) . Reported cell count?
Solution: 411

Exercise: Item under review: Cc1cc(N2CCN(C)CC2)nc(N2CCOCC2)n1 . Reported cell count?
Solution: 692

Exercise: Item under review: O=C(Nc1ccc(-c2nc3ncccc3o2)cc1)c1ccc(Br)o1 . Reported cell count?
Solution: 340

Exercise: Item under review: COC(=O)c1sc(N)c(C(=O)OC)c1COC(=O)C1CC(=O)N(Cc2ccco2)C1 (stereo unspecified) . Reported cell count?
Solution: 303

Exercise: Item under review: CCOc1ccc(CCNc2nc3c(c(=O)n(C)c(=O)n3C)n2CC)cc1OCC . Reported cell count?
Solution: 602

Exercise: Item under review: CCCNC(=O)c1c(N)n(-c2cc(OC)cc(OC)c2)c2nc3ccccc3nc12 . Reported cell count?
Solution: 587

Exercise: Item under review: COc1cc2c(cc1OC)CN(C(=O)CSc1nnc3scc(-c4ccccc4)n13)CC2 . Reported cell count?
Solution: 548

Exercise: Item under review: O=C(C1CCCO1)N1CCc2ccccc21 (stereo unspecified) . Reported cell count?
Solution: 445

Exercise: Item under review: COc1cc2c(cc1OC)CN(Cc1nc3ccsc3c(=O)[nH]1)CC2 . Reported cell count?
Solution: 335

Exercise: Item under review: CCOc1ccccc1NC(=O)N1C2CCCC1CC(NC(=O)C1CC1)C2 (stereo unspecified) . Reported cell count?
Solution: 417

Exercise: Item under review: Cc1cc2ccccc2n1CCNC(=O)C1CC1 . Reported cell count?
Solution: 709

Exercise: Item under review: CCOC(=O)c1ccc(NC(=O)CC2SC(=NC)N(C)C2=O)cc1 (stereo unspecified) . Reported cell count?
Solution: 401

Exercise: Item under review: CCc1ccc(C(=O)NC2CCCCC2)s1 . Reported cell count?
Solution: 355

Exercise: Item under review: N#CC1=C(SCc2ccccc2)NC(=O)C(C#N)C12CCCC2 (stereo unspecified) . Reported cell count?
Solution: 413

Exercise: Item under review: CC1=Nn2c(nnc2-c2ccccc2)SC1 . Reported cell count?
Solution: 303

Exercise: Item under review: CC(C)(C)c1ccc(C(=O)N2CCC(C(=O)NCc3ccncc3)CC2)cc1 . Reported cell count?
Solution: 344

Exercise: Item under review: CCOc1ccc(C2C(C(=O)OC)=CN(CCOC)C=C2C(=O)OC)cc1 . Reported cell count?
Solution: 298

Exercise: Item under review: COC(=O)C1=CN(C(C)C)C=C(C(=O)OC)C1c1cc2c(cc1Br)OCO2 . Reported cell count?
Solution: 386

Exercise: Item under review: CCOC(=O)c1ccccc1NC(=O)Cn1cnc2c(cnn2-c2ccc(OC)cc2)c1=O . Reported cell count?
Solution: 705

Exercise: Item under review: COc1ccc(OC)c2[nH]c(=O)c(CCNC(=O)CC(C)C)cc12 . Reported cell count?
Solution: 325

Exercise: Item under review: Cn1cccc1Cc1nnc(SCC(=O)Nc2ccccc2F)n1CCc1ccccc1 . Reported cell count?
Solution: 614

Exercise: Item under review: CCC(=O)Nc1ccc(NC(=O)CSc2nnnn2C(C)C)cc1 . Reported cell count?
Solution: 667

Exercise: Item under review: O=C(CN1CCN(C2CCCCC2)CC1)Nc1ccccc1-c1ccccc1 . Reported cell count?
Solution: 273

Exercise: Item under review: COc1ccc(NC(=O)NCCN2C(=O)C3C4C=CC(C4)C3C2=O)cc1 (stereo unspecified) . Reported cell count?
Solution: 572

Exercise: Item under review: Nc1nc(Nc2ccc(Cl)cc2Cl)nc(C(F)(F)F)n1 . Reported cell count?
Solution: 348

Exercise: Item under review: C=C(C)Cn1c(CCNC(=O)CC)nc2ccccc21 . Reported cell count?
Solution: 494

Exercise: Item under review: O=C(Nc1ccc2[nH]c3c(c2c1)CCCC3)c1ccco1 . Reported cell count?
Solution: 446

Exercise: Item under review: Cc1cc2ncn(C(=O)N3CCOCC3)c2cc1C . Reported cell count?
Solution: 309

Exercise: Item under review: COCCCn1c(=N)c(C(=O)NCC2CCCO2)cc2c(=O)n3cccc(C)c3nc21 (stereo unspecified) . Reported cell count?
Solution: 587

Exercise: Item under review: COc1ccc(-n2ncc3c(NCc4cccs4)ncnc32)cc1 . Reported cell count?
Solution: 424

Exercise: Item under review: Cc1nc(Nc2nc(=O)c3ccccc3n2C)nc2c(C)cccc12 . Reported cell count?
Solution: 594

Exercise: Item under review: COc1ccc(/C=N/n2cnnc2SCc2ccc(OC)cc2)cc1 . Reported cell count?
Solution: 378

Exercise: Item under review: O=C(NCCN1CCCCCC1)c1ccc(N2CCCC2=O)cc1 . Reported cell count?
Solution: 561

Exercise: Item under review: CCn1c(SCC(=O)Nc2cc(C)on2)nc2sc3c(c2c1=O)CCCC3 . Reported cell count?
Solution: 470

Exercise: Item under review: Cc1cc(C)c(C(=O)Nc2ccc(S(=O)(=O)Nc3onc(C)c3C)cc2)c(C)c1 . Reported cell count?
Solution: 680

Exercise: Item under review: Cc1ccc(-n2c3c(cc(C(=O)O)c2=O)C(=O)CC(C)(C)C3)cc1 . Reported cell count?
Solution: 418

Exercise: Item under review: Cn1c(C(=O)NCc2cccnc2)cc2sccc21 . Reported cell count?
Solution: 560

Exercise: Item under review: CC(C)(C)C1=Nn2c(nnc2-c2n[nH]c3c2CCC3)SC1 . Reported cell count?
Solution: 385

Exercise: Item under review: O=C(CC1(O)C(=O)Nc2ccccc21)c1ccc2c(c1)OCO2 (stereo unspecified) . Reported cell count?
Solution: 484

Exercise: Item under review: CCCCN(CCCC)C(=O)CN(C)S(=O)(=O)c1ccc2c(c1)n(C)c(=O)c(=O)n2C . Reported cell count?
Solution: 354
